Tested on: U251 CNS
EXPERIMENT_SUMMARY: NCI-60 one-dose screen, 48 h
EXPERIMENTAL_PARAMETERS: 10 µM unless noted
Compounds without any hit were thinned out: in the full panel of roughly 83,000, 20% have a hit. Activity calls are given as the source filed them. Rule for the calls: active = growth percent below 10; inactive = the rest.
Give your call using only these classes: active, inactive

Kindly provide the recorded test outcome for the following compound: `Nc1nc(Cl)c2[nH]cnc2n1`
inactive

Kindly provide the recorded test outcome for the following compound: `CCOc1nc(-c2ccccc2)cc2c(O)c(-c3nnco3)[nH]c(=O)c12`
inactive

Kindly provide the recorded test outcome for the following compound: `CCN1C(=O)c2ccc3c4c(ccc(c24)C1=O)C(=O)N(CCCNCc1ccccc1OC)C3=O`
active

Kindly provide the recorded test outcome for the following compound: `Cc1nn(-c2ccccc2)c2c1oc(=O)c1cc(Cl)ccc12`
inactive

Kindly provide the recorded test outcome for the following compound: Cc1cc(C)c2c(c1)N1OC(C2)C[C@H]1/C=C/c1ccccc1 (some centres not stated)
inactive

Kindly provide the recorded test outcome for the following compound: `C/C(=C\CCc1ccsc1)CC/C=C(\C)CCCN1CCN(CCO)CC1`
active

Kindly provide the recorded test outcome for the following compound: CCOc1cccc(C2CC(=O)Nc3cc4c(cc32)OCO4)c1 (configuration not stated)
inactive

Kindly provide the recorded test outcome for the following compound: CC(=O)O[C@H]1C(=O)[C@@]2(C)C([C@H](OC(=O)c3ccccc3)[C@]3(O)C[C@H](OC(=O)[C@H](O)[C@@H](NC(=O)c4ccccc4)c4ccccc4)C(C)=C1C3(C)C)[C@]1(OC(C)=O)CO[C@@H]1C[C@@H]2O (some centres not stated)
inactive

Kindly provide the recorded test outcome for the following compound: `Cc1c(C)c(N2C(=O)C=CC2=O)c(C)c(C)c1N1C(=O)C=CC1=O`
inactive

Kindly provide the recorded test outcome for the following compound: `O=C(Oc1ccc[nH]c1=O)c1cccc(Cl)c1`
inactive

Kindly provide the recorded test outcome for the following compound: `O=C1OCC/C1=C\OCCCO/C=C1\CCOC1=O`
inactive

Kindly provide the recorded test outcome for the following compound: `CN(C(=O)c1ccccc1)N(C)C(=O)c1ccccc1`
inactive

Kindly provide the recorded test outcome for the following compound: `CCN(CC)c1ccc(N=Nc2cc(Cl)ccc2Cl)c(NC(=O)CCC(=O)O)c1`
inactive

Kindly provide the recorded test outcome for the following compound: `O=C(Nc1nc2ccccc2s1)c1cc(-c2ccc(F)cc2)n2nc(-c3ccccc3)cc2n1`
inactive

Kindly provide the recorded test outcome for the following compound: `N#Cc1c(N2CCOCC2)nc2sc3cc(Cl)ccc3n2c1=N`
inactive

Kindly provide the recorded test outcome for the following compound: `Nc1ccc2c(c1)/C(=N/O)c1cc([N+](=O)[O-])ccc1-2`
inactive

Kindly provide the recorded test outcome for the following compound: COc1ccc(C2=NN(C(=O)c3cc(OC)c(OC)c(OC)c3)C(c3ccc(C#N)cc3)C2)cc1OC (configuration not stated)
inactive

Kindly provide the recorded test outcome for the following compound: `Cc1nc(N)[nH]c(=O)c1C`
inactive

Kindly provide the recorded test outcome for the following compound: CCC(CCC(C)C1CCC2C3CC=C4CC(O)CCC4(C)C3CCC12C)C(C)C (configuration not stated) (tested in a mixture with another compound)
inactive

Kindly provide the recorded test outcome for the following compound: `COc1cc(/C=C/C(=O)c2c(-c3ccc(F)cc3)nc3sc(C)nn23)cc(OC)c1OC`
inactive

Kindly provide the recorded test outcome for the following compound: `C=C(C[C@@](O)(C(=O)Oc1ccccc1)C(=O)C1CCCCC1)c1ccccc1`
inactive

----------
Tested on: NCI/ADR-RES ovarian
EXPERIMENT_SUMMARY: NCI-60 one-dose screen, 48 h (100 = growth as untreated, 0 = no growth, -100 = all killed)
EXPERIMENTAL_PARAMETERS: 10 µM unless noted
About 83,000 compounds went through this panel and 20% of them were active in at least one assay; those are over-represented in the sample as a whole.
VALUE_KIND: growth (%)
Quick note: give the figure in %, leave out the unit.

Some compounds with recorded growth:
| COMPOUND | TARGET_SYSTEM | growth / % |
| --- | --- | --- |
| COc1cccc2c1C(=O)c1c(O)c3c(c(O)c1C2=O)C[C@@](O)(/C(C)=N/NC(=O)c1cccc([N+](=O)[O-])c1)C[C@@H]3OC1CC(N)C(O)C(C)O1 (stereo partly drawn) | NCI/ADR-RES ovarian | 58.3 |
| COc1ccc(Nc2nccc(N3CCN(c4c5ccc(Cl)cc5nc5ccc(OC)cc45)CC3)n2)cc1 | NCI/ADR-RES ovarian | 75.9 |
| Cc1nn(-c2ccc(Cl)cc2)c2nc3c(nc12)C(=O)C(=O)c1ccccc1-3 | NCI/ADR-RES ovarian | 76.5 |
| COc1ccc(/C=N/NC(=O)c2ccc(S(C)(=O)=O)cc2)cc1OC | NCI/ADR-RES ovarian | 108 |
| O=C1/C(=N/O)CCc2ccccc21 | NCI/ADR-RES ovarian | 102 |
| N=C(N)/N=C(\CCc1nc2ccccc2[nH]1)c1nc2ccccc2[nH]1 | NCI/ADR-RES ovarian | 93.4 |
| CC/C=C\C=C/C(=O)N/C=C/CC1Cc2cccc(O)c2C(=O)O1 (stereo not drawn) | NCI/ADR-RES ovarian | 57.2 |
| CCN(CC)CCOc1ccc(C2=C(c3ccccc3)CCc3cc(OC)ccc32)cc1 | NCI/ADR-RES ovarian | -26.1 |
| COC(=O)C[C@@H]1CC=CC(=O)/C1=C(O)/C=C/c1ccccc1 | NCI/ADR-RES ovarian | 17.6 |
| CC(=O)NC1(C(=O)O)CCCC1 | NCI/ADR-RES ovarian | 140 |

For this compound ( `NNC(=O)NO` ), measured growth is 109

For this compound ( `O=c1[nH]c(Cl)nc2c1cnn2-c1ccccc1` ), measured growth is 96.3

For this compound ( `ClC1=C(Cl)C(Cl)=C(Cl)C1=C/C=C/c1ccccc1` ), measured growth is -0.902

For this compound ( `Cc1ccc(C(C)C)cc1NC(=O)Nc1ccc([N+](=O)[O-])cc1` ), measured growth is -10.7

For this compound ( `CCCCn1c(Cc2ccc(Cl)cc2)nc2cc(OC)c(OC)cc2c1=O` ), measured growth is 75.7

For this compound ( `O=C1OC(c2ccc(-c3ccccc3)cc2)=C/C1=C/c1cccs1` ), measured growth is 86.5

For this compound ( `C/C(=N/N=C(N)N)c1ccc(N)cc1` ), measured growth is 103

For this compound ( `O=C1CN(CO)C(=O)CN1CO` ), measured growth is 103

For this compound ( `COc1ccc(/C=C/C(=O)Nc2cccnc2Nc2ccc(F)cc2)cc1` ), measured growth is 93.1

For this compound ( Cc1cc2c(C#N)n3c(c2cc1C)C(=O)C(c1ccccc1)Oc1ccccc1-3 (stereo not drawn) ), measured growth is 25.8

----------
# key: entry, value: growth
System: MDA-MB-435 melanoma
EXPERIMENT_SUMMARY: NCI-60 one-dose screen, 48 h (100 = growth as untreated, 0 = no growth, -100 = all killed)
EXPERIMENTAL_PARAMETERS: 10 µM unless noted
Compounds without any hit were thinned out: in the full panel of roughly 83,000, 20% have a hit.
Quick note: give the figure in %, leave out the unit.

| MOLECULE | growth [%] |
| --- | --- |
| CCCCCCCC1(C)NC(=O)NC1=O (configuration not stated) | 123 |
| COC(=O)CCC1=C(C)/C(=C/c2[nH]c(-c3ccc[nH]3)cc2OC)N=C1C | -13.5 |
| CC/C(=C\c1ccc(N(C)C)cc1)c1nc2ccccc2c(=O)[nH]1 | 108 |
| Cc1cc2cn3c4cccnc4[nH]c(=O)c3c2cc1C | -20.7 |
| Nc1nc2ncc(CCNc3ccc(C(=O)NC(CCC(=O)O)C(=O)O)cc3)nc2c(=O)[nH]1 (configuration not stated) | 112 |

For this molecule ( `c1ccc(N2CCN(c3nncc4ccccc34)CC2)nc1` ), measured growth is 104

----------
Test system: NCI-H226 lung
EXPERIMENT_SUMMARY: NCI-60 one-dose screen, 48 h
EXPERIMENTAL_PARAMETERS: 10 µM unless noted
The panel holds about 83,000 compounds, 20% with a hit somewhere; the sample as a whole holds those more often. Active and inactive are the calls of the source. The calls were made as follows: active = growth percent below 10; inactive = the rest.
Give your call using only these classes: T = active, F = inactive

Kindly provide the recorded test outcome for the following molecule: `COc1ccc(-c2cn(-c3ccccc3)c(-c3ccccc3)n2)cc1OC`
F

Kindly provide the recorded test outcome for the following molecule: `Cc1cccc(Cl)c1NC(=O)c1ccc2nc(NC(=O)NC3CC(C)(C)NC(C)(C)C3)sc2c1`
F

Kindly provide the recorded test outcome for the following molecule: `C=C(C)[C@H]1CC/C(C)=C/CC[C@]2(C)O[C@H]2CC/C(COC(C)=O)=C\C1=O`
F

Kindly provide the recorded test outcome for the following molecule: `C/C(=C\CCc1ccsc1)CC/C=C(\C)CCCN1CCN(CCO)CC1`
F

Kindly provide the recorded test outcome for the following molecule: `CCCCn1c(Cc2ccc(Cl)cc2)nc2cc(OC)c(OC)cc2c1=O`
F
